Would you mind telling me the reported total protein half-life in vivo of each entry?
# assay summary: total protein half-life in vivo (active degradation + dilution); higher = more stable protein
# run conditions: wild type E. coli NCM3722; growth: N-lim chemostat; doubling time 12 h
Remember to put the unit after the number in your answer.

Below, each entry is followed by its recorded total protein half-life in vivo result.
sequence text	result
MTHKATEILTGKVMQKSVLITGCSSGIGLESALELKRQGFHVLAGCRKPDDVERMNSMGFTGVLIDLDSPESVDRAADEVIALTDNCLYGIFNNAGFGMYGPLSTISRAQMEQQFSANFFGAHQLTMRLLPAMLPHGEGRIVMTSSVMGLISTPGRGAYAASKYALEAWSDALRMELRHSGIKVSLIEPGPIRTRFTDNVNQTQSDKPVENPGIAARFTLGPEAVVDKVRHAFISEKPKMRYPVTLVTWAVMVLKRLLPGRVMDKILQG [P0AFP4]	11.9 h
MLDNVLRIATRQSPLALWQAHYVKDKLMASHPGLVVELVPMVTRGDVILDTPLAKVGGKGLFVKELEVALLENRADIAVHSMKDVPVEFPQGLGLVTICEREDPRDAFVSNNYDSLDALPAGSIVGTSSLRRQCQLAERRPDLIIRSLRGNVGTRLSKLDNGEYDAIILAVAGLKRLGLESRIRAALPPEISLPAVGQGAVGIECRLDDSRTRELLAALNHHETALRVTAERAMNTRLEGGCQVPIGSYAELIDGEIWLRALVGAPDGSQIIRGERRGAPQDAEQMGISLAEELLNNGAREILAEVYNGDAPA	7.01 h
MKHTVEVMIPEAEIKARIAELGRQITERYKDSGSDMVLVGLLRGSFMFMADLCREVQVSHEVDFMTASSYGSGMSTTRDVKILKDLDEDIRGKDVLIVEDIIDSGNTLSKVREILSLREPKSLAICTLLDKPSRREVNVPVEFIGFSIPDEFVVGYGIDYAQRYRHLPYIGKVILLDE [P0A9M2]	7.29 h
MSQLPGLSRETRESIAMYHLRVPQTEEELERYYQFRWEMLRKPLHQPKGSERDAWDAMAHHQMVVDEQGNLVAVGRLYINADNEASIRFMAVHPDVQDKGLGTLMAMTLESVARQEGVKRVTCSAREDAVEFFAKLGFVNQGEITTPTTTPIRHFLMIKPVATLDDILHRGDWCAQLQQAWYEHIPLSEKMGVRIQQYTGQKFITTMPETGNQNPHHTLFAGSLFSLATLTGWGLIWLMLRERHLGGTIILADAHIRYSKPISGKPHAVADLGALSGDLDRLARGRKARVQMQVEIFGDETPGAVFEGTYIVLPAKPFGPYEEGGNEEE [P0ADQ2]	8.84 h

// switching to the query sequence
total protein half-life in vivo lookup needed for MGFLSGKRILVTGVASKLSIAYGIAQAMHREGAELAFTYQNDKLKGRVEEFAAQLGSDIVLQCDVAEDASIDTMFAELGKVWPKFDGFVHSIGFAPGDQLDGDYVNAVTREGFKIAHDISSYSFVAMAKACRSMLNPGSALLTLSYLGAERAIPNYNVMGLAKASLEANVRYMANAMGPEGVRVNAISAGPIRTLAASGIKDFRKMLAHCEAVTPIRRTVTIEDVGNSAAFLCSDLSAGISGEVVHVDGGFSIAAMNELELK [P0AEK4] , thanks.
10.2 h

====

Give total protein half-life in vivo for every item shown.
# assay summary: total protein half-life in vivo (active degradation + dilution); higher = more stable protein
# run conditions: wild type E. coli NCM3722; growth: P-lim chemostat; doubling time 12 h
Answer format: value, then unit.

sequence text	measured parameter	result
MKQPAPVYQRIAGHQWRHIWLSGDIHGCLEQLRRKLWHCRFDPWRDLLISVGDVIDRGPQSLRCLQLLEQHWVCAVRGNHEQMAMDALASQQMSLWLMNGGDWFIALADNQQKQAKTALEKCQHLPFILEVHSRTGKHVIAHADYPDDVYEWQKDVDLHQVLWSRSRLGERQKGQGITGADHFWFGHTPLRHRVDIGNLHYIDTGAVFGGELTLVQLQ	total protein half-life in vivo	5.48 h

Attention now shifts to the item below.
Given the sequence "MSWQEKINAALDARRAADALRRRYPVAQGAGRWLVADDRQYLNFSSNDYLGLSHHPQIIRAWQQGAEQFGIGSGGSGHVSGYSVVHQALEEELAEWLGYSRALLFISGFAANQAVIAAMMAKEDRIAADRLSHASLLEAASLSPSQLRRFAHNDVTHLARLLASPCPGQQMVVTEGVFSMDGDSAPLAEIQQVTQQHNGWLMVDDAHGTGVIGEQGRGSCWLQKVKPELLVVTFGKGFGVSGAAVLCSSTVADYLLQFARHLIYSTSMPPAQAQALRASLAVIRSDEGDARREKLAALITRFRAGVQDLPFTLADSCSAIQPLIVGDNSRALQLAEKLRQQGCWVTAIRPPTVPAGTARLRLTLTAAHEMQDIDRLLEVLHGNG" , what is its reported total protein half-life in vivo?
10.9 h

Reference for the values: the supplement of paper PMC11246515
